Cited source for all entries: patent US11584747B2

# target_entity: human DGKζ (Homo sapiens (Human), UniProt Q13574)
# Sequence (Q13574 other isoform, or with tags, fused parts or gaps): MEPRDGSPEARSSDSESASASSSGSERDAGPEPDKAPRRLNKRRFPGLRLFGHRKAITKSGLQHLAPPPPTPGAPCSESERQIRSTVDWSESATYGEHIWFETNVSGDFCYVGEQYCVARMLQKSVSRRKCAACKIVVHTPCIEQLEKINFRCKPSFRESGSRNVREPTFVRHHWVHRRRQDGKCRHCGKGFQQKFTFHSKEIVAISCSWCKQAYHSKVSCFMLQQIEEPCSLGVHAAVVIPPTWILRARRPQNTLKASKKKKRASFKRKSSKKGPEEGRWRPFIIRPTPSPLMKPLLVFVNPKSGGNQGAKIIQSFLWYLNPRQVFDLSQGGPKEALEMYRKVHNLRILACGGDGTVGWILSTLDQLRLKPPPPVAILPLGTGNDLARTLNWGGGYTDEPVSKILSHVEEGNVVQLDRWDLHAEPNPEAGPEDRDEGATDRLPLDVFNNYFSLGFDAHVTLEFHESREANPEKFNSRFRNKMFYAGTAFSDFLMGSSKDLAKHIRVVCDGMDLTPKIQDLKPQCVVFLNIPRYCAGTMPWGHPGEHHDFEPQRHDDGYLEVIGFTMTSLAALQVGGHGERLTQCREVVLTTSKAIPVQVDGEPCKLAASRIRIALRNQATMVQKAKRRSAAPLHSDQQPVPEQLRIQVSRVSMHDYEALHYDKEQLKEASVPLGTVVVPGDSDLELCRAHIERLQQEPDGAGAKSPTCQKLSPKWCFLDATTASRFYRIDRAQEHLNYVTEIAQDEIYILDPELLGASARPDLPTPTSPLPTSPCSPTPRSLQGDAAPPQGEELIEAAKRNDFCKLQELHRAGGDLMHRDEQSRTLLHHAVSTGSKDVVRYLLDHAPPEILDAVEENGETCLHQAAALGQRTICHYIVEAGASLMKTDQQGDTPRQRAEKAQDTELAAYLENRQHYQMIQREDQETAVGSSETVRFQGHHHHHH
# method_summary: DGKζ LIPGLO assay (extruded liposome substrate, ADP-Glo luminescence)
# Assay type: biochemical
# test_settings: liposome assay; read-out: DGK zeta LIPGLO IC50
quantity: IC50 (nM)
Give bare numbers, in nM.

Below, each entry is followed by its recorded IC50 result.
> print(dat)
                                   compound  quantity  result.value
1  CC(c1ccc(F)c(F)c1)N1C[C@H](C)N(c2nc(=O)n(C)c3ccc(C#N)nc23)C[C@H]1C (single isomer, unassigned) [Example 149]      IC50          1180
2  CC[C@H]1CN(C(C)c2cnc(C(F)(F)F)nc2)[C@H](CC)CN1c1nc(=O)n(C)c2ccc(C#N)nc12 (stereo partly drawn) [Example 227]      IC50          1790

Let's switch to this compound now.
GET /value?item= CC[C@H]1CN(C(C)c2ccc(OC(F)(F)F)cc2)[C@H](CC)CN1c1nc(=O)n(C)c2ccc(C#N)nc12 (single isomer, unassigned) [Example 9] &field=IC50 returns 48
